Measured 3 sigma Hit by item
# Target Or System: SaCas9 (Staphylococcus aureus)
# Sequence (J7RUA5 whole entry): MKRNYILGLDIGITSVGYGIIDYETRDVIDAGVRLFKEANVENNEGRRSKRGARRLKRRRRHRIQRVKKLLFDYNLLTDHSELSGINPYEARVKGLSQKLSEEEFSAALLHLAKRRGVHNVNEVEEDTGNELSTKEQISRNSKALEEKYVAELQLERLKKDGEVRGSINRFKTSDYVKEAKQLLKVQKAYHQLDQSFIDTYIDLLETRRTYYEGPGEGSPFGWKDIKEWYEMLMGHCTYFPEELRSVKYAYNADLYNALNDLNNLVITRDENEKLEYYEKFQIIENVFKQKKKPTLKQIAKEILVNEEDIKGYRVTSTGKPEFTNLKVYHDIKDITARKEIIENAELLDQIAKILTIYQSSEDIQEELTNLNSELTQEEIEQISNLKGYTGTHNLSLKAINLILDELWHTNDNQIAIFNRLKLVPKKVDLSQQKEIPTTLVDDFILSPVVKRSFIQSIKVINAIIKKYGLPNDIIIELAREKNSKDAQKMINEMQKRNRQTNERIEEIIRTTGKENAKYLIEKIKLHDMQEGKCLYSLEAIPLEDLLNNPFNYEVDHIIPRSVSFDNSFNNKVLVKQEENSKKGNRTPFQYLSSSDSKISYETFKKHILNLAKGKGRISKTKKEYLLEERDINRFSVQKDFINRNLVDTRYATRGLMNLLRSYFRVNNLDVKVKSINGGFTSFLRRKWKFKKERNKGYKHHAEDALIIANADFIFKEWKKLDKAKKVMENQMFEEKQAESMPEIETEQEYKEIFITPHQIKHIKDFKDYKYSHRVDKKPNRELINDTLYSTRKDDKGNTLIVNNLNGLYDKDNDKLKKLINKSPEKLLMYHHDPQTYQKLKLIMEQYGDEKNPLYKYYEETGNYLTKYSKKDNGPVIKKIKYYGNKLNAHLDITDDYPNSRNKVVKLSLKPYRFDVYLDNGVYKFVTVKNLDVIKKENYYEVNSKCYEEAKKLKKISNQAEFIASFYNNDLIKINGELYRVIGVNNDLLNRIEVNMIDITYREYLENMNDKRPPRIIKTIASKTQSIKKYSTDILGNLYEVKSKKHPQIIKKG
# Assay Notes: Strand displacement assay, SaCas9 primary screen
# Format: biochemical
# Test Settings: flag 1 = hit at 3 sigma
Number, no unit, nothing else.

For orientation, consider the following solved cases.
O=C(NCCCN1CCC(N2CCCCC2)CC1)C1=Cc2sc3c(c2CS1)CCCC3 = 1
COc1ccc(OC)c(S(=O)(=O)Nc2cnc(N3CCCC3)c(C(=O)O)c2)c1 = 1
CN(C)S(=O)(=O)Nc1ccc(N2CCCC(CN3CCCC3)C2)c(C(=O)O)c1 (stereo not shown) = 1

Kindly review the next molecule as well.
Reported 3 sigma Hit of COc1cccc(CNCc2cccn2-c2sc(C)c(C)c2C(=O)O)c1 : 1
